# -TdeltaS per entry
system: Influenza A virus (A/Udorn/307/1972(H3N2))
Unit kcal/mol implied. Number only.

Compound: NC12CC3CC(CC(C3)C1)C2
Unit abbreviation: kcal/mol
Measured value: -1.11

Compound: CCC1(N)C2CC3CC(C2)CC1C3 (stereo not drawn)
Unit abbreviation: kcal/mol
Measured value: -1.38

Compound: CC1(N)C2CC3CC(C2)CC1C3 (stereo not drawn)
Unit abbreviation: kcal/mol
Measured value: -1.51

Compound: CN1CCCC12C1CC3CC(C1)CC2C3 (stereo not drawn)
Unit abbreviation: kcal/mol
Measured value: -4.46

Query :: Return value of -TdeltaS for input C1CNC2(C1)C1CC3CC(C1)CC2C3 (stereo not drawn) , no commentary.
Result :: -3.97

Query :: Return value of -TdeltaS for input CCCC1(N)C2CC3CC(C2)CC1C3 (stereo not drawn) , no commentary.
Result :: -0.932

Query :: Return value of -TdeltaS for input NC1C2CC3CC(C2)CC1C3 (stereo not drawn) , no commentary.
Result :: -0.93

Query :: Return value of -TdeltaS for input CC12CC3CC(CC(C3)C13CCCN3)C2 (stereo not drawn) , no commentary.
Result :: -3
